The origin of these recorded values is EPA's aquatic toxicity sets.

- Test system: Daphnia magna
- assaySummary: 48 h LC50 (-log10 mol/L); higher = more toxic
Examples of compounds with documented 48 h LC50 (-log10 mol/L) follow.
endpointLabel: 48 h LC50 (-log10 mol/L)

- compound: "Nc1cc(Cl)ccc1Cl"
  observed: 4.74
- compound: "CC(=O)CC(C)=O"
  observed: 3.32
- compound: "C1CCCCC1"
  observed: 4.34
- compound: "CC(=O)Nc1ccc(O)cc1"
  observed: 4.22
- compound: "CC(C)NCC(O)c1ccc(NS(C)(=O)=O)cc1 (stereo not given)"
  observed: 2.96
- compound: "CN(C)C(=S)N(C)C"
  observed: 2.23
- compound: "CC1(C)C(C=C(Cl)Cl)C1C(=O)OC(C#N)c1ccc(F)c(Oc2ccccc2)c1 (stereo not given)"
  observed: 9.13
- compound: "C1CCNCC1"
  observed: 3.93
- compound: "c1cc2ccc3cccc4ccc(c1)c2c34"
  observed: 6.17
- compound: "c1ccc(-c2ccccc2)cc1"
  observed: 4.91
- compound: "Cc1cc(Cl)ccc1OCC(=O)O"
  observed: 3.05
- compound: "Cc1cc(C)c(C)cc1C"
  observed: 5.45
- compound: "Oc1ccc(Cl)cc1Cl"
  observed: 4.8
- compound: "S=C=NCc1ccccc1"
  observed: 6.54
- compound: "CNC(=S)N(C)C"
  observed: 2.19

---

Examples of compounds with documented 96 h LC50 (-log10 mol/L) follow.
- Test system: Pimephales promelas
- assaySummary: 96 h LC50 (-log10 mol/L); higher = more toxic

- compound: "CC(=O)c1ccc(Cl)c(Cl)c1Cl"
  96 h LC50 (-log10 mol/L): 5.05
- compound: "ClC1(Cl)C2(Cl)C3(Cl)C4(Cl)C(Cl)(Cl)C5(Cl)C3(Cl)C1(Cl)C5(Cl)C24Cl (centres undefined)"
  96 h LC50 (-log10 mol/L): 3.62
- compound: "CCOC(=O)c1ccccc1"
  96 h LC50 (-log10 mol/L): 4.25
- compound: "Nc1ccc(O)c([N+](=O)[O-])c1"
  96 h LC50 (-log10 mol/L): 3.63
- compound: "C=CC(=O)OCCO"
  96 h LC50 (-log10 mol/L): 4.38
- compound: "c1ccc2occc2c1"
  96 h LC50 (-log10 mol/L): 3.93
- compound: "CC(C)C(C(=O)OC(C#N)c1cccc(Oc2ccccc2)c1)c1ccc(OC(F)F)cc1 (centres undefined)"
  96 h LC50 (-log10 mol/L): 8.98
- compound: "Cc1cccc(C)c1"
  96 h LC50 (-log10 mol/L): 3.82
- compound: "CC=NO"
  96 h LC50 (-log10 mol/L): 2.89
- compound: "O=C1C2CC=CCC2C(=O)N1SC(Cl)(Cl)Cl (centres undefined)"
  96 h LC50 (-log10 mol/L): 6.35
- compound: "Nc1ccccc1C(=O)c1ccc(Cl)cc1"
  96 h LC50 (-log10 mol/L): 5.04
- compound: "Cc1ccc(N(C)C)cc1"
  96 h LC50 (-log10 mol/L): 3.42
- compound: "C=CCCl"
  96 h LC50 (-log10 mol/L): 3.55
- compound: "Nc1ccc(Br)cn1"
  96 h LC50 (-log10 mol/L): 2.99

---

- Test system: Pimephales promelas
- assaySummary: 96 h LC50 (-log10 mol/L); higher = more toxic

- compound: "CCC1(CCC(C)C)C(=O)NC(=O)NC1=O"
  systemTested: "Pimephales promelas"
  96 h LC50 (-log10 mol/L): 3.42
- compound: "CCCCC(=O)CCCC"
  systemTested: "Pimephales promelas"
  96 h LC50 (-log10 mol/L): 3.66
- compound: "O=Cc1ccccc1[N+](=O)[O-]"
  systemTested: "Pimephales promelas"
  96 h LC50 (-log10 mol/L): 4.02
- compound: "CNC(=O)ON=C(C)SC"
  systemTested: "Pimephales promelas"
  96 h LC50 (-log10 mol/L): 4.89
- compound: "CCN(CCO)c1cccc(C)c1"
  systemTested: "Pimephales promelas"
  96 h LC50 (-log10 mol/L): 3.53
- compound: "Nc1ccc(F)cc1C(F)(F)F"
  systemTested: "Pimephales promelas"
  96 h LC50 (-log10 mol/L): 3.78
- compound: "ClCCl"
  systemTested: "Pimephales promelas"
  96 h LC50 (-log10 mol/L): 2.42
- compound: "Cc1cccc([N+](=O)[O-])c1N"
  systemTested: "Pimephales promelas"
  96 h LC50 (-log10 mol/L): 3.8
- compound: "Oc1ccc(Oc2ccccc2)cc1"
  systemTested: "Pimephales promelas"
  96 h LC50 (-log10 mol/L): 4.58
- compound: "CCCCOC(C)=O"
  systemTested: "Pimephales promelas"
  96 h LC50 (-log10 mol/L): 3.81
- compound: "CC(C)=CC1C(C(=O)OCc2ccc(C)cc2C)C1(C)C (centres undefined)"
  systemTested: "Pimephales promelas"
  96 h LC50 (-log10 mol/L): 6.67
- compound: "CC(C)=NO"
  systemTested: "Pimephales promelas"
  96 h LC50 (-log10 mol/L): 2.12
- compound: "O=P(c1ccccc1)(c1ccccc1)c1ccccc1"
  systemTested: "Pimephales promelas"
  96 h LC50 (-log10 mol/L): 3.71
- compound: "CCN(CC)c1c([N+](=O)[O-])cc(C(F)(F)F)c(N)c1[N+](=O)[O-]"
  systemTested: "Pimephales promelas"
  96 h LC50 (-log10 mol/L): 5.39
